In what follows, each item is paired with its pKi for Adenosine receptor A1 (Homo sapiens).
Schema: pKi number; meaning minus log10 of the concentration expressed in molar units.

Consider the worked cases shown below.
N#Cc1sc(=S)n(CCc2ccccc2)c1/N=C/c1ccc(Br)cc1 9.60
CCCCn1c(/N=C/c2ccc(F)cc2)c(C#N)sc1=S 7.78
N#Cc1sc(=S)n(-c2ccccc2)c1/N=C/c1ccc(F)cc1 12.20

Check Adenosine receptor A1 (Homo sapiens) data and give pKi for CCn1c(/N=C/c2ccc(F)cc2)c(C#N)sc1=S .
12.23
